Data provenance is PubChem BioAssay (NCI).

- Test system: OVCAR-4 ovarian
- procedure.details: NCI tumour cell line growth inhibition, 48 h
measured.metric: TGI

NNC(=O)/C(=C/c1ccc(Cl)cc1Cl)NC(=O)c1ccccc1 on OVCAR-4 ovarian gives TGI = > 100 µM

CCN(CC)CCCNc1nc(=O)[nH]c(C)c1C(=O)Nc1cccc2cc3ccccc3cc12 on OVCAR-4 ovarian gives TGI = > 100 µM

COc1ccc(OCc2nc3cc(C(F)(F)F)ccc3nc2-c2ccccc2)cc1 on OVCAR-4 ovarian gives TGI = > 100 µM

---

- Tested on: HS 578T breast
- procedure.details: NCI tumour cell line growth inhibition, 48 h
measured.metric: TGI

For CC1(C)CC(=O)c2c(C(F)(F)F)nn(-c3ccc(C(N)=O)c(NC4CCC(OC(=O)CN)CC4)c3)c2C1 (centres undefined) the compound record lists TGI as > 100 µM

For CCSCCC(N)C(=O)O (centres undefined) the compound record lists TGI as > 100 µM

For c1ccc([P+](Cc2ccc(C[P+](c3ccccc3)(c3ccccc3)c3ccccc3)cc2)(c2ccccc2)c2ccccc2)cc1 the compound record lists TGI as > 100 µM

For O=c1cc(-c2ccccc2)[nH]c2ccccc12 the compound record lists TGI as > 23.2 µM
